Entry source: BigSolDB 2.1

Conditions: in n-butyl acetate, 293.15 K
measured-attribute: solubility (mole fraction)
The reply should be a number, written without any unit.

The recorded solubility (mole fraction) for entry CC1(C)[C@@H](O)CC[C@]2(C)[C@H]3C(=O)C=C4[C@@H]5C[C@@](C)(C(=O)O)CC[C@]5(C)CC[C@@]4(C)[C@]3(C)CC[C@@H]12 equals 0.00327

* * *

Details: in isopropanol, 283.15 K
measured-attribute: solubility (mole fraction)
The reply should be a number, written without any unit.

The recorded solubility (mole fraction) for entry CC1(C)[C@@H](O)CC[C@]2(C)[C@H]3C(=O)C=C4[C@@H]5C[C@@](C)(C(=O)O)CC[C@]5(C)CC[C@@]4(C)[C@]3(C)CC[C@@H]12 equals 0.00946
